Entry source: patent US6927236B2

biological target: amyloid precursor protein - FE65 interaction (Homo sapiens, UniProt O00213); construct: 1 μL of GST-PTB2 (20 nM in Buffer A) was added; test: Test for the ability to inhibit the APP-FE65 interaction (energy transfer, Eu-cryptate/XL665); conditions: biotin-cAPP / GST-PTB2, emission at 665 nm and 615 nm; read-out: Inhibition of the amyloid precursor protein - FE65 interaction, IC50
Sequence (O00213 542-699 limits assumed): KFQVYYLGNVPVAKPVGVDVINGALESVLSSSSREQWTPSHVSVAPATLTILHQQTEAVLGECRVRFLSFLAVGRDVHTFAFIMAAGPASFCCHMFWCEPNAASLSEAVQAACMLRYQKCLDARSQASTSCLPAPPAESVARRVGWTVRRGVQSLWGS
# maps each entry to its IC50
Enter your answer as a number in µM; do not include the unit.

Reference set (3 entries):
Compound	Assay Target	Reported
CC(=O)NCC(=O)N/C(=C\SC/C=C(\C)CC/C=C(\C)CCC(C)=C(C)C)C(=O)O [Coniosulfide B]	amyloid precursor protein - FE65 interaction (Homo sapiens, UniProt O00213)	2.6
CC(=O)NCC(=O)NCC(=O)N/C(=C\SC/C=C(\C)CC/C=C(\C)CCC(C)=C(C)C)C(=O)O [Coniosulfide D]	amyloid precursor protein - FE65 interaction (Homo sapiens, UniProt O00213)	3.8
CC(=O)NCC(=O)NCC(=O)N/C(=C\SC/C=C(\C)CC/C=C(\C)CCC=C(C)C)C(=O)O [Coniosulfide C]	amyloid precursor protein - FE65 interaction (Homo sapiens, UniProt O00213)	3.8

Supply recorded IC50 for C/C=C/C=C/C1C(C)=CC2CC(C)CCC2C1(C)/C(O)=C1\C(=O)NC(C(C)O)C1=O (centres unmarked) here.
28

Specify measured IC50 for CC(=O)NCC(=O)N/C(=C\SC/C=C(\C)CC/C=C(\C)CCC=C(C)C)C(=O)O [Coniosulfide A] .
2.3
